Documented solubility at 18 h across a set of substances
assay procedure: Assay (IV) determination of solubility
Type: physicochemical
recorded conditions: bistrispropane buffer, pH 7.5, pH 7.5; read-out: Solubility pH 7.5
Starred links: 1 amine or outer side, 2 acyl side, 3 side chain; linkers in the order of their positions; H or OH if unused. Positions of bridges follow the written chain, without caps; N, C: chain ends. *: point of attachment. C20 diacid = O=C(O)CCCCCCCCCCCCCCCCCCC(=O)*; γGlu = O=C(O)[C@H](CCC(=O)[*:2])N[*:1]

[
  {
    "substance": "{C20 diacid-γGlu}-SSGSSGHCNTATCATQRLAEFLHHSSNNFGPILPPTNVGSNTY-NH2 (disulfide 8-13 (inferred); C-terminus assumed) [Example 44]",
    "modifier": ">",
    "solubility at 18 h / µM": 200
  },
  {
    "substance": "{C20 diacid-γGlu}-SSGSSGCNTATCATQRLAEFLHHSSNNFGPILPPTNVGSNTY-NH2 (disulfide 7-12 (inferred)) [Example 39]",
    "modifier": "=",
    "solubility at 18 h / µM": 25
  }
]

###

test target: human amylin receptor (amylin 3(a) receptor: human calcitonin receptor + RAMP-3) (Homo sapiens, UniProt O60896+P30988)
Construct: expressed in transfected cells; host or cells: BHK570
Sequence (P30988 25-474): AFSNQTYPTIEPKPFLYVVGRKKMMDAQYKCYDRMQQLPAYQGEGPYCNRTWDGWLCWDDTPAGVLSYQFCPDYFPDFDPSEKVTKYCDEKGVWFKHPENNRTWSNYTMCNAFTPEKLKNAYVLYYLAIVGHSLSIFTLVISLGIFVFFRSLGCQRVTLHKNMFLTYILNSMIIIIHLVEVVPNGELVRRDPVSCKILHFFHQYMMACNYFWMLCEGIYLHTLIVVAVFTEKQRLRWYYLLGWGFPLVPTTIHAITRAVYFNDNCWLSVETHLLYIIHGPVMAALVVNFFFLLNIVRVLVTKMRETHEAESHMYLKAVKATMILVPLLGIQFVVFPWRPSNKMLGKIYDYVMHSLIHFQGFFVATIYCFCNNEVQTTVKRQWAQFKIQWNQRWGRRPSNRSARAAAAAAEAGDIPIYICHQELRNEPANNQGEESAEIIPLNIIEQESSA
Sequence (O60896 24-148 partner): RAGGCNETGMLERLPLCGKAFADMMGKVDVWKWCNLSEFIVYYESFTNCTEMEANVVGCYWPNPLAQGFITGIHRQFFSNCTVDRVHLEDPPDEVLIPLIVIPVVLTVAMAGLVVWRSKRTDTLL
assay procedure: Assay (II)a functional CRE-luciferase assay, human amylin receptor
Type: cell-based
recorded conditions: Table 6; human amylin receptor
Starred links: 1 amine or outer side, 2 acyl side, 3 side chain; linkers in the order of their positions; H or OH if unused. Positions of bridges follow the written chain, without caps; N, C: chain ends. *: point of attachment. C20 diacid = O=C(O)CCCCCCCCCCCCCCCCCCC(=O)*; γGlu = O=C(O)[C@H](CCC(=O)[*:2])N[*:1]

[
  {
    "substance": "{C20 diacid-γGlu}-SSGSSGCNTATCATQRLAEFLHHSSNNFGPILPPTNVGSNTY-NH2 (disulfide 7-12 (inferred)) [Example 39]",
    "EC50": "253 pM"
  }
]

###

assay procedure: Assay (IV) determination of solubility
Format: physicochemical
recorded conditions: bistrispropane buffer, pH 8, pH 8.0; read-out: Solubility pH 8.0
Starred links: 1 amine or outer side, 2 acyl side, 3 side chain; linkers in the order of their positions; H or OH if unused. Positions of bridges follow the written chain, without caps; N, C: chain ends. *: point of attachment. C20 diacid = O=C(O)CCCCCCCCCCCCCCCCCCC(=O)*; γGlu = O=C(O)[C@H](CCC(=O)[*:2])N[*:1]
value kind: solubility at 18 h (µM)

[
  {
    "substance": "{C20 diacid-γGlu}-SSGSSGHCNTATCATQRLAEFLHHSSNNFGPILPPTNVGSNTY-NH2 (disulfide 8-13 (inferred); C-terminus assumed) [Example 44]",
    "value unit": "µM",
    "modifier": ">",
    "value": 200
  },
  {
    "substance": "{C20 diacid-γGlu}-SSGSSGCNTATCATQRLAEFLHHSSNNFGPILPPTNVGSNTY-NH2 (disulfide 7-12 (inferred)) [Example 39]",
    "value unit": "µM",
    "modifier": "=",
    "value": 26
  }
]

###

Documented solubility at 18 h across a set of substances
assay procedure: Assay (IV) determination of solubility
Type: physicochemical
recorded conditions: bistrispropane buffer, pH 6.5, pH 6.5; read-out: Solubility pH 6.5
Description: ASSAY (IV)—Determination of Solubility The polypeptide was dissolved in water at ˜500 nmol/ml and mixed 1:1 with a series of buffers (100 mM glycylglycine pH 3.0, 100 mM glycylglycine pH 4.0, 100 mM glycylglycine pH 5.0, 100 mM bistrispropane pH 6.0, 100 mM bistrispropane pH 6.5, 100 mM bistrispropane pH 7.0, 100 mM bistrispropane pH 7.5, 100 mM bistrispropane pH 8.0). After 18 hours at room temperature the samples were centrifuged and the polypeptide concentration determined by HPLC.
Starred links: 1 amine or outer side, 2 acyl side, 3 side chain; linkers in the order of their positions; H or OH if unused. Positions of bridges follow the written chain, without caps; N, C: chain ends. *: point of attachment. C20 diacid = O=C(O)CCCCCCCCCCCCCCCCCCC(=O)*; γGlu = O=C(O)[C@H](CCC(=O)[*:2])N[*:1]

[
  {
    "substance": "{C20 diacid-γGlu}-SSGSSGCNTATCATQRLAEFLHHSSNNFGPILPPTNVGSNTY-NH2 (disulfide 7-12 (inferred)) [Example 39]",
    "value unit": "µM",
    "solubility at 18 h": 4
  },
  {
    "substance": "{C20 diacid-γGlu}-SSGSSGHCNTATCATQRLAEFLHHSSNNFGPILPPTNVGSNTY-NH2 (disulfide 8-13 (inferred); C-terminus assumed) [Example 44]",
    "value unit": "µM",
    "solubility at 18 h": 20
  }
]

###

assay procedure: Assay (IV) determination of solubility
Type: physicochemical
recorded conditions: bistrispropane buffer, pH 7, pH 7.0; read-out: Solubility pH 7.0
Starred links: 1 amine or outer side, 2 acyl side, 3 side chain; linkers in the order of their positions; H or OH if unused. Positions of bridges follow the written chain, without caps; N, C: chain ends. *: point of attachment. C20 diacid = O=C(O)CCCCCCCCCCCCCCCCCCC(=O)*; γGlu = O=C(O)[C@H](CCC(=O)[*:2])N[*:1]
Documented solubility at 18 h across a set of substances

[
  {
    "substance": "{C20 diacid-γGlu}-SSGSSGCNTATCATQRLAEFLHHSSNNFGPILPPTNVGSNTY-NH2 (disulfide 7-12 (inferred)) [Example 39]",
    "value unit": "µM",
    "solubility at 18 h": 1
  },
  {
    "substance": "{C20 diacid-γGlu}-SSGSSGHCNTATCATQRLAEFLHHSSNNFGPILPPTNVGSNTY-NH2 (disulfide 8-13 (inferred); C-terminus assumed) [Example 44]",
    "value unit": "µM",
    "solubility at 18 h": 52
  }
]

###

assay procedure: Assay (IV) determination of solubility
Type: physicochemical
recorded conditions: glycylglycine buffer, pH 5, pH 5.0; read-out: Solubility pH 5.0
Description: ASSAY (IV)—Determination of Solubility The polypeptide was dissolved in water at ˜500 nmol/ml and mixed 1:1 with a series of buffers (100 mM glycylglycine pH 3.0, 100 mM glycylglycine pH 4.0, 100 mM glycylglycine pH 5.0, 100 mM bistrispropane pH 6.0, 100 mM bistrispropane pH 6.5, 100 mM bistrispropane pH 7.0, 100 mM bistrispropane pH 7.5, 100 mM bistrispropane pH 8.0). After 18 hours at room temperature the samples were centrifuged and the polypeptide concentration determined by HPLC.
Starred links: 1 amine or outer side, 2 acyl side, 3 side chain; linkers in the order of their positions; H or OH if unused. Positions of bridges follow the written chain, without caps; N, C: chain ends. *: point of attachment. C20 diacid = O=C(O)CCCCCCCCCCCCCCCCCCC(=O)*; γGlu = O=C(O)[C@H](CCC(=O)[*:2])N[*:1]

[
  {
    "substance": "{C20 diacid-γGlu}-SSGSSGCNTATCATQRLAEFLHHSSNNFGPILPPTNVGSNTY-NH2 (disulfide 7-12 (inferred)) [Example 39]",
    "value unit": "µM",
    "modifier": "=",
    "solubility at 18 h": 52
  },
  {
    "substance": "{C20 diacid-γGlu}-SSGSSGHCNTATCATQRLAEFLHHSSNNFGPILPPTNVGSNTY-NH2 (disulfide 8-13 (inferred); C-terminus assumed) [Example 44]",
    "value unit": "µM",
    "modifier": ">",
    "solubility at 18 h": 200
  }
]

###

test target: human calcitonin receptor (Homo sapiens, UniProt P30988)
Construct: expressed in transfected cells; host or cells: BHK570
Sequence (P30988 25-474): as the sequence (P30988 25-474) above
assay procedure: Assay (II)a functional CRE-luciferase assay, human calcitonin receptor
Type: cell-based
recorded conditions: Table 7; human calcitonin (CTa) receptor
Starred links: 1 amine or outer side, 2 acyl side, 3 side chain; linkers in the order of their positions; H or OH if unused. Positions of bridges follow the written chain, without caps; N, C: chain ends. *: point of attachment. C20 diacid = O=C(O)CCCCCCCCCCCCCCCCCCC(=O)*; γGlu = O=C(O)[C@H](CCC(=O)[*:2])N[*:1]

[
  {
    "substance": "{C20 diacid-γGlu}-SSGSSGHCNTATCATQRLAEFLHHSSNNFGPILPPTNVGSNTY-NH2 (disulfide 8-13 (inferred); C-terminus assumed) [Example 44]",
    "value unit": "nM",
    "EC50": 0.669
  },
  {
    "substance": "{C20 diacid-γGlu}-SSGSSGCNTATCATQRLAEFLHHSSNNFGPILPPTNVGSNTY-NH2 (disulfide 7-12 (inferred)) [Example 39]",
    "value unit": "nM",
    "EC50": 0.432
  }
]
